Entries and their measured IC50 follow.
- tested-target: VLA-4 integrins on human U937 cells (interaction between VCAM-1 and VLA-4) (Homo sapiens, UniProt P05556+P13612)
- Construct: the VLA-4 integrins, are offered in their natural form as surface molecules on human U937 cells; the partner hVCAM-1(1-3)-IgG came from the supernatant of transfected COS cells (ATCC CRL1651)
- Sequence (P13612 34-1032): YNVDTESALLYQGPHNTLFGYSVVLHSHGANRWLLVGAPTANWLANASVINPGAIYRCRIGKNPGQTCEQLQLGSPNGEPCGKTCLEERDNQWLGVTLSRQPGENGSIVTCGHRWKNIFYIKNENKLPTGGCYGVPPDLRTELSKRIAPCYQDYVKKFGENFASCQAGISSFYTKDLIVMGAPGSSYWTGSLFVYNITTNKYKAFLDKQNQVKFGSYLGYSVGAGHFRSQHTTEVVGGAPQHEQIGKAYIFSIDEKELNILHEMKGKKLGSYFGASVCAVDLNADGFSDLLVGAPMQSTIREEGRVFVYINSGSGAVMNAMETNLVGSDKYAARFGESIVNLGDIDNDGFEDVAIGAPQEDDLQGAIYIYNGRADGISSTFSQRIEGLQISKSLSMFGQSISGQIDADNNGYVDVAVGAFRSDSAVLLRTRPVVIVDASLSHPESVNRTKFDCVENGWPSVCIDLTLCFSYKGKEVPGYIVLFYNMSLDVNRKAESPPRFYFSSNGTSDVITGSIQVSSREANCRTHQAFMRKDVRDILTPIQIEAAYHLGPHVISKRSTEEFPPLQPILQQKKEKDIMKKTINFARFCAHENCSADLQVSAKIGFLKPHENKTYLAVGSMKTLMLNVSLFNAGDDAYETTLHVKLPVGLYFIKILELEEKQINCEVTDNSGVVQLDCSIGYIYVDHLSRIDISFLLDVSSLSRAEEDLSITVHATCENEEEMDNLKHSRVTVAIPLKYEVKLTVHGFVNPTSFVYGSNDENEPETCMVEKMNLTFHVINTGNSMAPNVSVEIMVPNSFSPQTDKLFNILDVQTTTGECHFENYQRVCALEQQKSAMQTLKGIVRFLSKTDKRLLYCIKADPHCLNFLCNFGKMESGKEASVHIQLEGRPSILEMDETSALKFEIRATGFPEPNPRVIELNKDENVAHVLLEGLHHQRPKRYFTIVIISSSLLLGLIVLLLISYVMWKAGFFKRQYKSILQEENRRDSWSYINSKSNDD
- Sequence (P05556 21-798): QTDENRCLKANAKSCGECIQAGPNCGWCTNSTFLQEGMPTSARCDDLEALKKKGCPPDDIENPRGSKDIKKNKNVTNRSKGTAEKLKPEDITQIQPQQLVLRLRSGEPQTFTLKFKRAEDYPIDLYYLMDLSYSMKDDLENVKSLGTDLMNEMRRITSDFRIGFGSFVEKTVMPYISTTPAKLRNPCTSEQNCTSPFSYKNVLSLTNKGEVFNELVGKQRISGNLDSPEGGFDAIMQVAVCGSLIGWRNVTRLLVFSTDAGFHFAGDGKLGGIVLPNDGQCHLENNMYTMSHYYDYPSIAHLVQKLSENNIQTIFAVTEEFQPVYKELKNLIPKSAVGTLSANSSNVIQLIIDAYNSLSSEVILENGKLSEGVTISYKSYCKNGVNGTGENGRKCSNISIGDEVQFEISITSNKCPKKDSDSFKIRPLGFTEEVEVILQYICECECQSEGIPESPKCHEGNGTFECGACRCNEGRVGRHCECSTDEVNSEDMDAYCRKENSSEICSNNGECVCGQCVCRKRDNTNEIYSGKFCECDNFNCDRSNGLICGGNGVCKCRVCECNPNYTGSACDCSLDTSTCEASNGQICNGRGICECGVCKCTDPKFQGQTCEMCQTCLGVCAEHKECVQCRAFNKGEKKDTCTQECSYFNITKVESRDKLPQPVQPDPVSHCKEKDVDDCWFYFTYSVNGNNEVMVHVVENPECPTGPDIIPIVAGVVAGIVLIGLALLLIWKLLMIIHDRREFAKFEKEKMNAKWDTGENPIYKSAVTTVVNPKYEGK
- experimental-details: U937/VCAM-1 cell adhesion test (adhesion of U937 cells to hVCAM-1(1-3)-IgG)
- assay-conditions: concentration leading to 50% inhibition of adhesion
Report only the number, with the unit µM understood.

// below: answered molecules
{"molecule": "CN1C(=O)N(CC(=O)N[C@@H](CC(=O)O)C(=O)N[C@H](C(=O)O)c2ccccc2)C(=O)C1(C)c1ccc(C(=N)N)cc1 (stereo partly drawn)", "IC50, µM": 15}
{"molecule": "CC1(c2ccc(C(=N)N)cc2)C(=O)N(CC(=O)N[C@@H](CC(=O)O)C(=O)N[C@H](C(=O)O)c2ccccc2)C(=O)N1Cc1ccc(-c2ccccc2)cc1 (mixture of isomers)", "IC50, µM": 0.25}
{"molecule": "CC1(c2ccc(NC(=N)N)cc2)C(=O)N(CC(=O)N[C@@H](CC(=O)O)C(=O)N[C@H](C(=O)O)c2ccccc2)C(=O)N1Cc1ccccc1 (stereo partly drawn)", "IC50, µM": 3.25}

Prompt: Look up IC50: COc1ccc(C(CC(=O)O)NC(=O)CN2C(=O)N(Cc3ccccc3)C(C)(c3ccc(C(=N)N)cc3)C2=O)cc1OC (stereo not drawn)
Completion: 17.5

Prompt: # IC50 lookup, item Cc1cc(C)cc(CN2C(=O)N(CC(=O)N[C@@H](CC(=O)O)C(=O)N[C@H](C(=O)O)c3ccccc3)C(=O)C2(C)c2ccc(C(=N)N)cc2)c1 (mixture of isomers)
Completion: 3.5

Prompt: # get_value(readout='IC50', item= CC(C(=O)N[C@@H](CC(=O)O)C(=O)N[C@H](C(=O)O)c1ccccc1)N1C(=O)N(Cc2ccccc2)C(C)(c2ccc(C(=N)N)cc2)C1=O (stereo partly drawn) )
Completion: 0.37

Prompt: Could you share which IC50 value was measured for CCN1C(=O)N(CC(=O)N[C@@H](CC(=O)O)C(=O)N[C@H](C(=O)O)c2ccccc2)C(=O)[C@@H]1CCCN ?
Completion: 250

Prompt: May I ask what IC50 has been recorded for N=C(N)NCCC[C@H]1C(=O)N(CC(=O)N[C@@H](CC(=O)O)C(=O)N[C@H](C(=O)O)c2ccccc2)C(=O)N1Cc1ccccc1 ?
Completion: 45

Prompt: Record request: IC50 value, item CC1(c2ccc(C(=N)N)cc2)C(=O)N(CC(=O)N[C@@H](CC(=O)O)C(=O)N[C@H](C(=O)O)c2ccccc2)C(=O)N1Cc1ccc(C(F)(F)F)cc1 (mixture of isomers)
Completion: 32

###

- tested-target: VLA-4 integrins on human U937 cells (interaction between VCAM-1 and VLA-4) (Homo sapiens, UniProt P05556+P13612)
- Construct: the VLA-4 integrins, are offered in their natural form as surface molecules on human U937 cells; host or cells: U937 cells (VLA-4, endogenous); the partner hVCAM-1(1-3)-IgG came from the supernatant of transfected COS cells (ATCC CRL1651)
- experimental-details: U937/VCAM-1 cell adhesion test (adhesion of U937 cells to hVCAM-1(1-3)-IgG)
- Assay type: cell-based
- assay-conditions: concentration leading to 50% inhibition of adhesion
measure: pIC50
Notebook: values listed as pIC50 are -log10 of the concentration (mol/L).

{"molecule": "CC(C)(C)c1ccc(CN2C(=O)N(CC(=O)N[C@@H](CC(=O)O)C(=O)N[C@H](C(=O)O)c3ccccc3)C(=O)C2(C)c2ccc(C(=N)N)cc2)cc1 (mixture of isomers) [Example 5]", "pIC50": 4.82}
{"molecule": "CC1(c2ccc(C(=N)N)cc2)C(=O)N(CC(=O)NC[C@H](NC(=O)OCc2ccc(C(F)(F)F)cc2)C(=O)O)C(=O)N1Cc1ccccc1 (stereo partly shown) [Example 67]", "pIC50": 5.65}
{"molecule": "Cc1ccc(CN2C(=O)N(CC(=O)N[C@@H](CC(=O)O)C(=O)N[C@H](C(=O)O)c3ccccc3)C(=O)C2(C)c2ccc(C(=N)N)cc2)cc1 (mixture of isomers) [Example 12]", "pIC50": 5.57}

With those in mind, consider the next molecule.
Prompt: Which pIC50 is listed for CC1(c2ccc(C(=N)N)cc2)C(=O)N(CC(=O)N[C@@H](CC(=O)O)C(=O)N[C@H](C(=O)O)c2ccccc2)C(=O)N1Cc1c(F)c(F)c(F)c(F)c1F (mixture of isomers) [Example 6] ?
Completion: 4.19
